test: Cytotoxicity assay in THP-1 (MTT); format: cell-based; conditions: human, THP-1 cells, read-out: THP-1 inhibition (CC50)
assayEndpoint: CC50 at 96 h (nM)

{"columns": ["inputSmiles", "quantityUnit", "result"],
 "data": [
  ["CCN(CC)c1ccc(/C=C/c2cc[n+](CCCCCCCCCC[n+]3ccc(/C=C/c4ccc(N(CC)CC)cc4)c(C)c3)cc2C)cc1", "nM", 660]
]}

###

biological target: UniProtKB P08684; test: in vitro; settings: microsomes
Sequence (P08684 whole entry): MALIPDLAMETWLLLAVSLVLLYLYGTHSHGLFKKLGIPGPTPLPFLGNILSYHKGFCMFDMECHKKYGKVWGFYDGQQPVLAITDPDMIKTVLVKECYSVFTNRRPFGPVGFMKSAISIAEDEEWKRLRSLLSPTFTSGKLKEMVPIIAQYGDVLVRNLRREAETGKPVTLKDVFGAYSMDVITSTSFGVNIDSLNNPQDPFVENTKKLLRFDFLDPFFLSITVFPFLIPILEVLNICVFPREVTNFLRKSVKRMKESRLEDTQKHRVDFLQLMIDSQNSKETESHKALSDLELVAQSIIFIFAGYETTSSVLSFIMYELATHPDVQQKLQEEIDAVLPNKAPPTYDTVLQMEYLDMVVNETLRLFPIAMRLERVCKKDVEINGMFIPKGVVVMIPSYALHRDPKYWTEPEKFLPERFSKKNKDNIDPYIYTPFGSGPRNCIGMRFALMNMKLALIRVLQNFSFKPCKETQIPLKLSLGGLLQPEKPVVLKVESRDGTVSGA

{"columns": ["compound", "quantityUnit", "inhibition at 30 min, 10 µM"],
 "data": [
  ["CCN(CC)c1ccc(/C=C/c2cc[n+](CCCCCCCCCC[n+]3ccc(/C=C/c4ccc(N(CC)CC)cc4)c(C)c3)cc2C)cc1 [YAT2150]", "%", 35]
]}
